Sourced from patent US20260035365A1

- Assayed target: mutEGFR (D770_N771insSVD) (Homo sapiens, UniProt P00533, INS767SVD)
- Sequence (P00533 with tags, fused parts or gaps INS767SVD limits assumed): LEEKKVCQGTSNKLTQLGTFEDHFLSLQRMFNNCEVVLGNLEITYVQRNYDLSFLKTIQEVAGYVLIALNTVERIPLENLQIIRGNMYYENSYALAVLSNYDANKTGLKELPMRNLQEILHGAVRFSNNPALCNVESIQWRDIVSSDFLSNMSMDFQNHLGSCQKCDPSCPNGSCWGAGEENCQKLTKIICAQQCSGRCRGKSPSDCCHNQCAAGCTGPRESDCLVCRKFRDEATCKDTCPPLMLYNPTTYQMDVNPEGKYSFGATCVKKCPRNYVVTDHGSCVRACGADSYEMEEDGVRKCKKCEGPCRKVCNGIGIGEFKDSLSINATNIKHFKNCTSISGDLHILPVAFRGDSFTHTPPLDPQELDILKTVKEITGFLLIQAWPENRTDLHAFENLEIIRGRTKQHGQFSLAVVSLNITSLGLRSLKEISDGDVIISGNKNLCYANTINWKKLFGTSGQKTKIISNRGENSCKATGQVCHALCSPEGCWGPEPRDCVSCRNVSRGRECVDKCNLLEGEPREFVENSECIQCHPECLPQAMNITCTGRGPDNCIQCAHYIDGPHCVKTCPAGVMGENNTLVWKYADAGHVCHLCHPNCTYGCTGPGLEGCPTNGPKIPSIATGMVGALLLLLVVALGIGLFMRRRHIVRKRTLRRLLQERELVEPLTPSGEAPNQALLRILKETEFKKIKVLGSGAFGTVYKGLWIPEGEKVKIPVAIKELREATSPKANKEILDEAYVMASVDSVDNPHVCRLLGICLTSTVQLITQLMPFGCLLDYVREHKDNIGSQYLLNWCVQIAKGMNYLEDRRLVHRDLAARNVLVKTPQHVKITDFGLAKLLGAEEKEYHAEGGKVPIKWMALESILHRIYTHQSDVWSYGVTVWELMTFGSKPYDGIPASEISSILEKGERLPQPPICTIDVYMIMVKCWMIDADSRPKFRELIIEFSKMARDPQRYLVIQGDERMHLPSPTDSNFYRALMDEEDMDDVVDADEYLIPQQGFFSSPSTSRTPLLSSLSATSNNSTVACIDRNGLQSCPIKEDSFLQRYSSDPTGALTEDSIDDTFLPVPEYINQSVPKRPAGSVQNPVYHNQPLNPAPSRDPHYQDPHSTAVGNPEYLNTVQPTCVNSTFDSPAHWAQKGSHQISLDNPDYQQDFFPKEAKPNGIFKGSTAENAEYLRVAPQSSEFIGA
- Experiment summary: Exon20-mutant-EGFR (D770_N771insSVD) TR-FRET kinase assay
- Assay context: 2 mM ATP, 15 min preincubation
So basically, if IC50 comes in under 3 nM it's Condition met, and if it's 3 nM or more it's Condition not met.

Answered cases to consult:
O=C(/C=C/CN1CCCC1)N1CCC[C@H]1COc1cnccc1-c1[nH]c2cccnc2c1-c1ccccc1 [Example 99] | Condition met
C=CS(=O)(=O)N(C)CCOc1cnccc1-c1[nH]c2cccnc2c1-c1cc(Cl)ccc1F [Example 60] | Condition met
CN(C)C/C=C\C(=O)N1CCC[C@H]1COc1cnccc1-c1[nH]c2cccnc2c1-c1ccccc1 [Example 98] | Condition not met
C#CC(=O)N1CC[C@@H](Oc2cnccc2-c2[nH]c3cccnc3c2-c2cc(Cl)ccc2F)C1 [Example 128] | Condition not met

Now, please, on to the next compound.
Query string: # strict comparison: is reported IC50 < 3 nM? input = C=CC(=O)N1CCC[C@H]1COc1cnccc1-c1[nH]c2cccnc2c1-c1cc(C(F)(F)F)ccc1F [Example 76]
Result string: Condition met
